Hello, the source for this data is patent US20250353835A1, in case you need it.

# Assay target: human B1R (Homo sapiens, UniProt P46663)
# Sequence (P46663 whole entry): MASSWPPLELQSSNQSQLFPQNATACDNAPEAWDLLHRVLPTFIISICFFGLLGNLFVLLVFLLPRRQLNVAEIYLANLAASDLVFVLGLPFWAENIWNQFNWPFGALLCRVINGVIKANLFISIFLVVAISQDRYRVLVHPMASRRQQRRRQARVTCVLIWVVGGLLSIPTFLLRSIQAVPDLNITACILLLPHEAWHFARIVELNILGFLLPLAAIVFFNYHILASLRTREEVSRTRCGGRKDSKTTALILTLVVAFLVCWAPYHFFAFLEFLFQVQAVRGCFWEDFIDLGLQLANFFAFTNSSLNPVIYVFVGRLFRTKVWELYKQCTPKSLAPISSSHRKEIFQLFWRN
# Measurement notes: FLIPR calcium ion flux assay, inhibitory activity against human B1R
# Test context: HEK293 cells stably expressing human B1R; agonist [Lys-des-Arg9]-Bradykinin 4.6 nM (EC80); FLIPR method
# Procedure: The inhibitory activity of the compounds against human B1R and B2R channels was determined by calcium ion flux assay using fluorometric imaging plate reader (FLIPR method). See literatures of Lee, Chen et al. for the method. […] 4. […] The calcium ion fluorescence signal was recorded to determine whether the compound may have agonist activity. […] The Ca^++-dependent fluorescence signal was continuously monitored at a wavelength of 538 nm to analyze the inhibitory activity of the compound. […]
Measurement kind: pIC50
Notebook: values listed as pIC50 are -log10 of the concentration (mol/L).

State the recorded pIC50 for this entry: CC(C)(C)C1CCN(C(=O)Nc2ccc(-c3cnn(C4CCC4)c3)c(-c3nn[nH]n3)c2)CC1 [Compound 9]
7.34

----------
# Measurement notes: Intraocular and retinal drug concentration in rats after eye drops (HPLC)
# Type: in vivo
# Test context: both sexes, SD, rat, vitreous body, topical, 10 μL of 2% solution per eye, twice a day for 7 days, 1 h after administration, 2% eye drops twice a day, read-out: Content of test compound in Vitreous body
# Excerpt: 2.1 Experimental aminals: SPF grade male SD rats, weighed 180-200 g, were used and adaptively fed for one week. 2.2 Drugs and reagents: Compound 71 and Compound 8; sodium chloride injection (Guangxi Yuyuan Pharmaceutical Co., Ltd.); sterile filter having 0.22 μm pore size (Millex). 2.3 Experimental animal grouping: the animals were randomly divided into 3 groups (6 rats per group) of a negative control group (normal saline), a Compound 71 group and a Compound 8 group. […]
Measurement kind: concentration at 1 h after the second eye drop on Day 7
Answer by giving the amount and then stating its unit.

CCOc1ccc(-c2ccc(NC(=O)N[C@H]3CC[C@H](C)CC3)cc2-c2nn[nH]n2)cn1
24200 ng/g

Report concentration at 1 h after the second eye drop on Day 7 for `CCOc1ccc(-c2c(F)cc(NC(=O)N3CCC(C(C)(C)C)CC3)cc2-c2nn[nH]n2)cn1` please.
18200 ng/g

----------
# Measurement notes: Pharmacokinetics in vivo in rats
# Parameters: species or system SD rats
# Test context: SD, rat, plasma; 3 mg/kg intravenous injection in rats
Listed molecules paired with reported half-life
Express the result in min but write the number alone.

Recorded half-life of CCOc1ccc(-c2ccc(NC(=O)N[C@H]3CC[C@H](C)CC3)cc2-c2nn[nH]n2)cn1 [Compound 71] , please.
55.8

What value of half-life has been recorded for this entry: CCOc1ccc(-c2c(F)cc(NC(=O)N3CCC(C(C)(C)C)CC3)cc2-c2nn[nH]n2)cn1 [Compound 8]
33.6

----------
# Assay target: CYP2C9 (Homo sapiens, UniProt P11712)
# Construct: The substrate method was used to determine the activity of human liver microsomal CYP450 enzyme; from tissue; host or cells: human liver microsomes
# Sequence (P11712 whole entry): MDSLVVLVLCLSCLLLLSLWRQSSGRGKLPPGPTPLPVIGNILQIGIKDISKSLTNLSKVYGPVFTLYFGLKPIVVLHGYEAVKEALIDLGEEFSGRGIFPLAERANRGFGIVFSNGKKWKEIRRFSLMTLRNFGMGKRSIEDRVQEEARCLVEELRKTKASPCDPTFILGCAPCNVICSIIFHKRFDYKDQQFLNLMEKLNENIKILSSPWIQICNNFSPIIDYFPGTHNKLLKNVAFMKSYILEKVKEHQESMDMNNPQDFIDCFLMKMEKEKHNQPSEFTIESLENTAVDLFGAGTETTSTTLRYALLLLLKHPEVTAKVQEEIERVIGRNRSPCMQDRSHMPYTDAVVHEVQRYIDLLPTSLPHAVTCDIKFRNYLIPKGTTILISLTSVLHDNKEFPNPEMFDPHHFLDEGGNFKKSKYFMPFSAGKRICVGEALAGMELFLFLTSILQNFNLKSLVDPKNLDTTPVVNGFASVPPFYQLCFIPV
# Measurement notes: CYP450 inhibition in human liver microsomes (substrate method, LC-MS/MS)
# Type: in vitro ADME
# Test context: read-out: CYP inhibition IC50 [μM], 2C9
Measurement kind: IC50 (µM)
State just the number; it will be interpreted in µM.

Request the reported IC50 associated with CCOc1ccc(-c2c(F)cc(NC(=O)N3CCC(C(C)(C)C)CC3)cc2-c2nn[nH]n2)cn1 [Compound 8]
50
